Hi there, I'd appreciate the recorded melting point for every entry that follows.

INSERT INTO results (molecule, measurement_label, reading) VALUES
  ('COc1ccc([N+](=O)[O-])c2cccnc12', 'melting point', '145 to 147 °C'),
  ('O=C(Cc1ccc(Cl)cc1)N1CCNCC1', 'melting point', '105 to 107 °C'),
  ('CCOC(=O)c1c[nH]c2cc(F)c(F)c(F)c2c1=O', 'melting point', '339 to 341 °C'),
  ('CC1Cc2ccccc2N1S(N)(=O)=O (centres undefined)', 'melting point', '67 to 69 °C'),
  ('O=C1CC(C2CC2)CN1 (centres undefined)', 'melting point', '99 to 101 °C');

Record melting point per entry; entries follow.
1. CCOC(=O)c1sc(NC(=O)CCl)c(C(=O)OC(C)(C)C)c1C
2. Nc1ncc(Cc2ccccc2)s1
3. O=C1CN(C2CCCC2)C(=O)N1
4. CCOC(=O)c1ccc(OCC#N)cc1

1: 148 to 150 °C; 2: 106 to 108 °C; 3: 148 to 150 °C; 4: 73 to 75 °C

Record melting point per entry; entries follow.
1. CC(CC(N)=NO)NC(=O)OC(C)(C)C (centres undefined)
2. CCn1c(=O)c(C)nc2cc(C(=O)O)ccc21
3. CCN(CC)S(=O)(=O)c1ccc(OC)c(C(=O)O)c1
4. CS(=O)(=O)CCCC(=O)O
5. NCC(O)CS(=O)(=O)c1cccs1 (centres undefined)
6. Cc1cc(Br)ccc1N1CC(C(=O)O)CC1=O (centres undefined)
7. Cc1c(C(=O)O)cnn1C1CCCC1
8. Cc1cc(C(=O)O)c(C)n1Cc1ccc(S(N)(=O)=O)cc1

1: 96 to 98 °C; 2: 204 to 206 °C; 3: 119 to 121 °C; 4: 78 to 80 °C; 5: 111 to 113 °C; 6: 81 to 83 °C; 7: 99 to 101 °C; 8: 198 to 202 °C

Record melting point per entry; entries follow.
1. CCOC(=O)Cc1ccc(F)cc1
2. CN1C(=O)CC(C(=O)O)C1c1ccc(C(F)(F)F)cc1 (centres undefined)
3. O=Cc1cc(-c2ccccc2)ccc1O

29 to 31 °C
145 to 147 °C
99 to 101 °C

Record melting point per entry; entries follow.
1. Nc1cc(F)c(-n2ccnc2)c(F)c1
2. O=C(O)c1ccn(C2CCCC2)n1
3. Nc1nonc1-c1ccc(F)cc1
4. O=C(CCl)Nc1ccccc1C(=O)Nc1ccc2c(c1)OCO2

["159 to 161 °C", "108 to 110 °C", "125 to 127 °C", "169 to 171 °C"]

###

Hi there, I'd appreciate the recorded melting point for every entry that follows.

Below are worked cases with known answers.
INSERT INTO measurements (molecule, reading) VALUES
  ('O=C(Nc1ccccc1O)C1CC1', '136 to 138 °C'),
  ('COc1cc(C(C)=O)ccc1S', '58 to 60 °C');

Record melting point per entry; entries follow.
1. OCc1nc(-c2ccco2)no1
2. Cc1ccc(CC(=O)Cc2ccc(C)cc2)cc1
3. O=[N+]([O-])c1ccc(OCC(F)(F)F)cc1

1. 123 to 125 °C
2. 53 to 55 °C
3. 73 to 75 °C

Record melting point per entry; entries follow.
1. Nc1cc(F)c(F)cc1N
2. Nc1nc(Br)cn2ccnc12
3. c1ccc(CNc2cccnc2)nc1
4. Cc1cccc(/C=C/c2cc(C(=O)O)c3cc(Br)ccc3n2)c1

126 to 130 °C
215 to 217 °C
50 to 52 °C
286 to 288 °C

Record melting point per entry; entries follow.
1. Cc1cccc2c1CCC2=O
2. O=C(O)C(CO)NS(=O)(=O)c1ccc(Br)cc1 (centres undefined)
3. Nc1ccc(N2CCSCC2)cc1

94 to 96 °C
239 to 241 °C
109 to 111 °C

Record melting point per entry; entries follow.
1. O=C(O)CN1CCCS1(=O)=O
2. Cc1nn(CCC(=O)O)c(C)c1[N+](=O)[O-]

1: 83 to 85 °C; 2: 116 to 118 °C

###

Hi there, I'd appreciate the recorded melting point for every entry that follows.

INSERT INTO results (compound, measurement_label, reading) VALUES
  ('c1ccc2c(c1)CNc1ccccc1-2', 'melting point', '120 to 122 °C'),
  ('N#Cc1cccc(N2CCCC2=O)c1', 'melting point', '81 to 83 °C'),
  ('O=c1ccc(Cl)n[nH]1', 'melting point', '138 to 140 °C'),
  ('Nc1ccc2nc(-n3ccnc3)sc2c1', 'melting point', '202 to 204 °C'),
  ('CCc1cccc2c(C(=O)O)c[nH]c12', 'melting point', '193 to 195 °C'),
  ('O=C(OCc1ccc(Br)cc1)c1ccccc1O', 'melting point', '69 to 71 °C');

Record melting point per entry; entries follow.
1. CCn1c(C2CCN(C(=O)OC(C)(C)C)CC2)n[nH]c1=O
2. COc1ccc(O)c(N)c1
3. O=CC(Br)C=O
4. O=C(O)C1CCCN1C(=O)Cc1cn2ccsc2n1 (centres undefined)
5. CC(=CC(=O)O)c1ccc(C(F)(F)F)cc1

219 to 221 °C
135 to 140 °C
132 to 134 °C
121 to 123 °C
122 to 124 °C

Record melting point per entry; entries follow.
1. Cn1cnnc1SCC(=O)Nc1cccc(C(=O)O)c1
2. O=C(O)Cc1ccc2c(c1)CCC2
3. CCn1c(Cl)nnc1-c1ccccc1Cl

231 to 233 °C
86 to 90 °C
123 to 125 °C

###

Hi there, I'd appreciate the recorded melting point for every entry that follows.

Below are worked cases with known answers.
INSERT INTO results (molecule, measurement_label, reading) VALUES
  ('CN(CC(=O)Nc1ccccc1C(F)(F)F)C(=O)CCl', 'melting point', '123 to 125 °C'),
  ('CC(=O)N1CCC(NC(=O)OCC(F)(F)F)CC1', 'melting point', '115 to 124 °C'),
  ('Nc1ccc(C(=O)N2CCCCC2)nc1', 'melting point', '170 to 172 °C'),
  ('CC(=O)Nc1cccc(F)c1C(=O)O', 'melting point', '202 to 204 °C'),
  ('CN1C(=O)C(C(N)=O)=C(N)C12CCCC2', 'melting point', '255 to 257 °C');

Record melting point per entry; entries follow.
1. OCc1cc(-c2ccccc2)[nH]n1
2. CCC(NC(=O)OC(C)(C)C)c1ccccc1O (stereo not drawn)

144 to 146 °C
111 to 113 °C

###

MEASUREMENT_LABEL: melting point

Below are worked cases with known answers.
INSERT INTO measurements (sample_smiles, measurement_label, reading) VALUES
  ('O=C(O)CNC(=O)CC1CCCCC1', 'melting point', '116 to 118 °C'),
  ('N#Cc1cn(-c2ccc(N)cc2)nc1N', 'melting point', '195 to 197 °C'),
  ('COc1cccc(C=C(CC(=O)O)c2nc3ccccc3s2)c1', 'melting point', '153 to 155 °C'),
  ('NC(=O)c1ccc(F)cc1Br', 'melting point', '163 to 165 °C'),
  ('O=C(O)CCn1cnc2ccccc2c1=O', 'melting point', '181 to 183 °C');

Record melting point per entry; entries follow.
1. C#CCn1ccc2ccccc21
2. CN1CCc2ncnc(Cl)c2C1

["43 to 45 °C", "67 to 69 °C"]

###

Hi there, I'd appreciate the recorded melting point for every entry that follows.

Below are worked cases with known answers.
INSERT INTO assay_data (sample_smiles, reading) VALUES
  ('COC(=O)c1coc(-c2cccc(C#N)c2)n1', '183 to 185 °C'),
  ('O=C(O)c1ccccc1OCc1ccccc1Cl', '119 to 121 °C');

Record melting point per entry; entries follow.
1. Nc1nccn2ccnc12
2. COc1ccc(-c2csc(CC#N)n2)cc1OC
3. O=C(O)c1cccnc1SCc1cccc(Br)c1
4. O=C(O)Cn1cc(Br)c(=O)[nH]c1=O
5. N#CCc1c(C#N)c(N)nc(N2CCCCC2)c1C#N

["212 to 214 °C", "101 to 103 °C", "186 to 188 °C", "266 to 268 °C", "142 to 144 °C"]

###

Hi there, I'd appreciate the recorded melting point for every entry that follows.

INSERT INTO results (molecule, reading) VALUES
  ('O=C(O)c1cc(C2CC2)nc2c1cnn2Cc1ccccc1', '209 to 211 °C'),
  ('O=Cc1c[nH]c2cc(F)ccc12', '176 to 178 °C');

Record melting point per entry; entries follow.
1. O=C1NCC2(CCCCC2)O1
2. Cc1cc(F)c(S(N)(=O)=O)cc1F
3. Cc1ccc(-n2cnnn2)cc1N
4. Cc1nc2nccc(C(=O)O)n2n1
5. Brc1ccc2c(c1)c1cc(Br)ccc1n2CC1CO1 (stereo not given)
6. CC(C)CCc1ccc(S(=O)(=O)Cl)cc1

1: 96 to 98 °C; 2: 132 to 134 °C; 3: 171 to 173 °C; 4: 226 to 228 °C; 5: 142 to 144 °C; 6: 35 to 39 °C

Record melting point per entry; entries follow.
1. COc1ccccc1OCCC(=O)O
2. NS(=O)(=O)CCOc1ccccc1
3. N#Cc1ccc(OCc2ccc(C(=O)O)o2)cc1

1: 133 to 135 °C; 2: 102 to 104 °C; 3: 203 to 205 °C

Record melting point per entry; entries follow.
1. Sc1nnc(-c2c[nH]c3ccccc23)n1CC1CCCO1 (stereo not given)
2. CCOC(=O)CNc1ccc(F)cc1
3. NS(=O)(=O)Cc1ccc(Cl)cc1Br
4. Cc1nc2cc(F)ccc2cc1C(=O)O
5. O=C(O)c1ccc2c(c1)C(=O)N(CCc1ccccc1)C2=O
6. CCOC(=O)/C(C#N)=C\Nc1cc(C)ccc1OC
7. N#CCn1c(C(=O)O)cc2ccccc21
8. O=C(O)c1cnc2ccc(Br)cc2c1O

251 to 253 °C
73 to 77 °C
169 to 171 °C
262 to 264 °C
215 to 217 °C
131 to 133 °C
192 to 194 °C
274 to 276 °C

Record melting point per entry; entries follow.
1. N#CCCNc1ccc(F)cc1
2. NC(=O)C1CN(C(=O)CCl)c2ccccc2O1 (stereo not given)
3. C1Cc2nn[nH]c2CN1
4. O=C(O)c1cc(S(=O)(=O)NC2CC2)ccc1Br

["38 to 42 °C", "133 to 135 °C", "154 to 156 °C", "221 to 223 °C"]

Record melting point per entry; entries follow.
1. CCOc1ccc(NS(=O)(=O)c2ccc(C)c(C(=O)O)c2)cc1
2. CSc1nc(N)cc(O)n1
3. O=C(O)c1c[nH]c2ccc(I)cc2c1=O
4. N#CCC(=O)c1cc2ccccc2o1
5. COc1ccccc1NC(=O)c1ccc(N)cc1
6. NNC(=O)C1Cc2ccccc2O1 (stereo not given)

1. 231 to 233 °C
2. 279 to 281 °C
3. 286 to 288 °C
4. 146 to 148 °C
5. 162 to 164 °C
6. 150 to 152 °C

Record melting point per entry; entries follow.
1. CCCCn1c(N)c(NC)c(=O)[nH]c1=O
2. Cc1sc(C(N)=O)cc1N

["201 to 203 °C", "179 to 181 °C"]

Record melting point per entry; entries follow.
1. Nc1ncc(-c2ccccc2)[nH]1
2. CCc1cc(C(=O)O)nn1C
3. NS(=O)(=O)c1ccc(F)c2ncccc12
4. O=c1c(Br)c[nH]cc1[N+](=O)[O-]
5. Cc1ccc(-c2nnc(N)o2)s1
6. NC1CCC2SCCSC12 (stereo not given)
7. CNC(=O)c1cccc(NC(=O)C(C)Cl)c1 (stereo not given)

139 to 141 °C
119 to 121 °C
256 to 258 °C
332 to 334 °C
247 to 249 °C
49 to 51 °C
149 to 151 °C

Record melting point per entry; entries follow.
1. COc1ccc(Sc2nsc(N)n2)cc1
2. CCC(C)c1ccc(-n2c(S)nc3cc(Cl)ccc3c2=O)cc1 (stereo not given)
3. NC(=O)c1ccc(C(=O)O)nc1
4. Cc1cc(-n2c(C)cc(C(=O)O)c2C)no1

1: 138 to 140 °C; 2: 242 to 244 °C; 3: 249 to 251 °C; 4: 175 to 180 °C
